experiment: RP, Thermo Scientific Hypersil GOLD, 1.9 µm, 40 °C, 0.4 mL/min; A: water + 0.1% formic acid, pH 3; B: acetonitrile + 0.1% formic acid, pH 3; gradient (min/%B) 0/0 1/0 11/100 13/100 14/0 16/0; settings: stereoisomer not certain
measured_endpoint: LC retention time (min)

>>> obs_value("Nc1ccn(C2OC(CO)C3OP(=O)(O)OC32)c(=O)n1 (stereo not given) [CYTIDINE 2'-3'-CYCLIC PHOSPHATE]")
0.7
>>> obs_value("O=CC(O)C1OC(=O)C(O)C1O [D-GLUCURONOLACTONE]")
0.71
>>> obs_value("CC(=O)OCC(N)C(=O)O (stereo not given) [O-ACETYLSERINE]")
0.69
>>> obs_value("O=C(O)CC(C(=O)O)C(O)C(=O)O (stereo not given) [ISOCITRATE]")
2.37
>>> obs_value("CC(C=CC1=C(C)CCCC1(C)C)=CC=CC(C)=CC(=O)[O-] [RETINOATE]")
11.5
>>> obs_value("CC12CCC(=O)C=C1CCC1C2C(=O)CC2(C)C1CCC2(O)C(=O)CO (stereo not given) [CORTISONE]")
6.81

P = NC1C(O)OC(COP(=O)(O)O)C(O)C1O (stereo not given) [GLUCOSAMINE 6-PHOSPHATE]
Q = COC1C(O)C(CO)OC1n1cnc2c(=O)[nH]cnc21 (stereo not given) [2'-O-Methylinosine]
R = CCC(C)C(N)C(=O)O (stereo not given) [ISOLEUCINE]
Qu. Returns the items ordered by LC retention time, from maximum to minimum. Please respond by ranking the labels in the order requested.
Ans. Q, R, P

Where these numbers come from: the RepoRT retention time repository
